TARGET_OR_TEST_SYSTEM: recombinant purified human Mi-2β protein (Homo sapiens)
METHOD_NOTES: FRET-based nucleosome repositioning assay (EpiDyne-FRET)
SETUP_CONDITIONS: IC50 against Mi-2β, ATP 100 μM
PROPERTY_MEASURED: pIC50
The read-out pIC50 is expressed as -log10 of concentration in moles per litre.

Lookup: Recorded pIC50 for Cn1c(=O)[nH]c2ccc(-c3cccc(C(=O)NC4CCn5ccnc5C4)c3)cc21 (stereo not shown) , please?
Found: 6.24

* * *

METHOD_NOTES: Pharmacokinetics in rats
Assay type: in vivo
SETUP_CONDITIONS: Sprague-Dawley, rat, serum, ip; intraperitoneal 1.0 mg/kg, male SD rats; read-out: half-life T1/2 (converted)
Description: Compound Z36-MP5 was evaluated in a pharmacokinetic study in male Sprague-Dawley (SD) rats following intraperitoneal injection of Z36-MP5 at 1.0 mg/kg as a solution in 5% DMSO, 30% PEG400, and 65% corn oil. Blood was collected at 0.25, 0.5, 1, 2, 4, 8, and 24 h following intraperitoneal injection. […] The serum samples were analyzed utilizing HPLC-coupled tandem mass spectrometry. Values are calculated from arithmetic mean plasma concentrations (n = 3 rats per condition). […]
PROPERTY_MEASURED: half-life (min)
Report as a plain number; the unit min is understood.

Lookup: Endpoint output: half-life of Cn1c(=O)[nH]c2ccc(-c3cccc(C(=O)NC4CCn5ccnc5C4)c3)cc21 (stereo not shown) [Z36-MP5] . Value?
Found: 27

* * *

TARGET_OR_TEST_SYSTEM: recombinant purified human Mi-2β protein (Homo sapiens, UniProt Q14839)
Sequence (Q14839 whole entry): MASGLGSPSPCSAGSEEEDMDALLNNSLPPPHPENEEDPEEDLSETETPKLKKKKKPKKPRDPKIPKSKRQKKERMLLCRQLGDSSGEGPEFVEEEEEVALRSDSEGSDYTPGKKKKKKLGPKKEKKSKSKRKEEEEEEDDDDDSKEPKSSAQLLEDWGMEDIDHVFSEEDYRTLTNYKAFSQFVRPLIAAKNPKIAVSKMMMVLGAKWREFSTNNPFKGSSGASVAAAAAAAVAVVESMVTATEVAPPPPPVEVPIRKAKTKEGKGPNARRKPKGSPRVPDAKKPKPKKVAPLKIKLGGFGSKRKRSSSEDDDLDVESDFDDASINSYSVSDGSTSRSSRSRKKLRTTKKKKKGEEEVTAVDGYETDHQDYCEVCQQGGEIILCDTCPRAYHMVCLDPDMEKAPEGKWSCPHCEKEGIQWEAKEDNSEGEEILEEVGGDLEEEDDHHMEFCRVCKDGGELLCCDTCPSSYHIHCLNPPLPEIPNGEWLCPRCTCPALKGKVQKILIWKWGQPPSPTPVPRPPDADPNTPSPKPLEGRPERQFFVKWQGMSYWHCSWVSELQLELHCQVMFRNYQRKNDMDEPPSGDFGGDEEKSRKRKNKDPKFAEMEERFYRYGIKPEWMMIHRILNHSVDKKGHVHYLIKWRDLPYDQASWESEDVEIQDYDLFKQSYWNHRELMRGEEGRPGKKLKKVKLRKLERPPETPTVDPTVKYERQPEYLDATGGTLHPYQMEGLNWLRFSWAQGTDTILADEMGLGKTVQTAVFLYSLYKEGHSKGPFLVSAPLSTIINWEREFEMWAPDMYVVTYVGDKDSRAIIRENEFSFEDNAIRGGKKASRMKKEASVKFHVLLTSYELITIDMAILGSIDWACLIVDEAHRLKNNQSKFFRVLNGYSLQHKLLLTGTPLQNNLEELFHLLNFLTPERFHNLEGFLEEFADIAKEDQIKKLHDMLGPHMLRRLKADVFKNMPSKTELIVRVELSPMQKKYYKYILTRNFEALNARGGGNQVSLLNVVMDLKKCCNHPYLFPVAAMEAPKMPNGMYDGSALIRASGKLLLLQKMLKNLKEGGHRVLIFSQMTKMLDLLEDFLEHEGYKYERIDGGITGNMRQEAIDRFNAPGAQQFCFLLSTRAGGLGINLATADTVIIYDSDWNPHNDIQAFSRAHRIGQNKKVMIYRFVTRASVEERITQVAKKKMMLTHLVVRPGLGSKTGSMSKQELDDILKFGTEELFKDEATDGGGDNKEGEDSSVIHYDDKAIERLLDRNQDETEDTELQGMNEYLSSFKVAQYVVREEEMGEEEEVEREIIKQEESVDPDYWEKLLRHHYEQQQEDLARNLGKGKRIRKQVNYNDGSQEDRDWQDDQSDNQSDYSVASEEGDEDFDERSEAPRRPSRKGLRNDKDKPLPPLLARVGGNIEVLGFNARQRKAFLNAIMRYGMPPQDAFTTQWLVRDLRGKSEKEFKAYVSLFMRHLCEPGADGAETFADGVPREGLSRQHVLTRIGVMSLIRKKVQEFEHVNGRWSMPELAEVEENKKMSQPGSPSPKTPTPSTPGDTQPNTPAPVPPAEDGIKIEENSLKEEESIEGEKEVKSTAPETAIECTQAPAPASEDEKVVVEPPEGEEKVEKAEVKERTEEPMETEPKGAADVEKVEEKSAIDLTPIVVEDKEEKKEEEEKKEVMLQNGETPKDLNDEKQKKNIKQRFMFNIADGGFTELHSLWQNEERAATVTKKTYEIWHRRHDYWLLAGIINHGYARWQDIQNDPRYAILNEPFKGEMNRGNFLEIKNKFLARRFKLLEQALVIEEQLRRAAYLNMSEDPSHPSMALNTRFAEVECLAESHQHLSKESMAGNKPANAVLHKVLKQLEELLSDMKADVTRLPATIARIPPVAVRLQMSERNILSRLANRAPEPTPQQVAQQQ
METHOD_NOTES: FRET-based nucleosome repositioning assay (EpiDyne-FRET)
SETUP_CONDITIONS: IC50 against Mi-2β, ATP 10 μM
PROPERTY_MEASURED: pIC50
// returns pIC50 (minus log10 of molar concentration), number only

Lookup: Fill in the recorded pIC50 for this compound, with recombinant purified human Mi-2β protein (Homo sapiens, UniProt Q14839) as test system: Cn1c(=O)[nH]c2ccc(-c3cccc(C(=O)NC4CCn5ccnc5C4)c3)cc21 (stereo not shown)
Found: 7.10
